FYI, the data here is from patent US20240317847A1.

Each record here notes measured Efficacy (%), RGA.
- system: T1, murine IL-11 (mouse, UniProt P47873 22-199)
- T1 sequence: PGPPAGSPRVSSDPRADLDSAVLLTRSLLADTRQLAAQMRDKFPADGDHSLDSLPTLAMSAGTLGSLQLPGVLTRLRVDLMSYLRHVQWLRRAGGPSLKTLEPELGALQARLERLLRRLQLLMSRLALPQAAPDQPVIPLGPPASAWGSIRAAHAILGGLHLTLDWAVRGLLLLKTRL
- procedureSummary: cell-based or functional assay
Just the number in %, nothing appended.

Example cases with answers are listed next.
- TPP-27160 (antibody, V domains shown) VH: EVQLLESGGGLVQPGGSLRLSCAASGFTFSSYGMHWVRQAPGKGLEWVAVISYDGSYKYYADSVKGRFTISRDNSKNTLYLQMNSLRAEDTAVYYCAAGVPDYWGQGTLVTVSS VL: QSVLTQPPSASGTPGQRVTISCSGSSSNIGSGYDVHWYQQLPGTAPKLLIYDNNERPSGVPDRFSGSKSGTSASLAISGLRSEDEADYYCAAWDDSLSGPVFGGGTKLTVL: 63.8
- TPP-27157 (antibody, V domains shown) VH: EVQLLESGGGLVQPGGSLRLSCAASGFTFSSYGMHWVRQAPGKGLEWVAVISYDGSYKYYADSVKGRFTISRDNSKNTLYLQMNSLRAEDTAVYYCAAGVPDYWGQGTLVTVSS VL: QSVLTQPPSASGTPGQRVTISCTGSSSNIGAGYDVHWYQQLPGTAPKLLIYSNNERPSGVPDRFSGSKSGTSASLAISGLRSEDEADYYCAAWDDSLSGPVFGGGTKLTVL: 86.4

get_value(item= TPP-27154 (antibody, V domains shown) VH: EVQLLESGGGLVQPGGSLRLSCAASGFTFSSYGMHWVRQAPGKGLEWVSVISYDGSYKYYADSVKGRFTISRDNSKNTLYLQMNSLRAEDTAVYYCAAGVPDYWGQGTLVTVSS VL: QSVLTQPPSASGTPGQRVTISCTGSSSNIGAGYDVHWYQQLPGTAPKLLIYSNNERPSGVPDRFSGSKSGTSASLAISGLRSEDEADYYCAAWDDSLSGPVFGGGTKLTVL , readout=Efficacy (%), RGA) returns 92.9
